experimentalTarget: S100A3 (Homo sapiens)
Sequence (P33764 1-101): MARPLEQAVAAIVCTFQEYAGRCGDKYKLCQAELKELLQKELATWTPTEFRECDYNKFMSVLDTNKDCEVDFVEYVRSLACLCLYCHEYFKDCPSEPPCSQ
pKd: −log10 of the molar value.
attributeMeasured: pKd

- molecule: "NC(=O)[C@H](CCCCNC(=O)c1ccc2c(c1)C1(OC2=O)c2ccc(O)cc2Oc2cc(O)ccc21)NC(=O)CNC(=O)[C@H]1CCCC[C@@H]1NC(=O)C[C@H](Cc1c[nH]c2ccccc12)NC(=O)[C@H]1CCCC[C@@H]1NC(=O)[C@H]1CCCC[C@@H]1NC(=O)C[C@H](Cc1c[nH]c2ccccc12)NC(=O)[C@H]1CCCC[C@@H]1N [fWW]"
  attributeMeasured: "pKd"
  observedMeasurement: 3.51

*Q* If you can, please state the reported pKd value of N=C(N)NCCC[C@@H](CC(=O)N[C@H]1CCCC[C@@H]1C(=O)N[C@H]1CCCC[C@@H]1C(=O)N[C@H](CC(=O)N[C@H]1CCCC[C@@H]1C(=O)NCC(=O)N[C@@H](CCCCNC(=O)c1ccc2c(c1)C1(OC2=O)c2ccc(O)cc2Oc2cc(O)ccc21)C(N)=O)Cc1ccccc1)NC(=O)[C@H]1CCCC[C@@H]1N [fRF] .
*A* < 3.00

*Q* Can you handle CC[C@H](C)[C@@H](CC(=O)N[C@H]1CCCC[C@@H]1C(=O)NCC(=O)N[C@@H](CCCCNC(=O)c1ccc2c(c1)C1(OC2=O)c2ccc(O)cc2Oc2cc(O)ccc21)C(N)=O)NC(=O)[C@H]1CCCC[C@@H]1NC(=O)[C@H]1CCCC[C@@H]1NC(=O)C[C@@H](NC(=O)[C@H]1CCCC[C@@H]1N)[C@@H](C)O [fTI] next?
*A* < 3.00

*Q* Same question, C[C@@H](O)[C@@H](CC(=O)N[C@H]1CCCC[C@@H]1C(=O)N[C@H]1CCCC[C@@H]1C(=O)N[C@H](CC(=O)N[C@H]1CCCC[C@@H]1C(=O)NCC(=O)N[C@@H](CCCCNC(=O)c1ccc2c(c1)C1(OC2=O)c2ccc(O)cc2Oc2cc(O)ccc21)C(N)=O)Cc1c[nH]c2ccccc12)NC(=O)[C@H]1CCCC[C@@H]1N [fTW] this time
*A* < 3.00

###

experimentalTarget: UniProt P31949
Sequence (P31949 1-105): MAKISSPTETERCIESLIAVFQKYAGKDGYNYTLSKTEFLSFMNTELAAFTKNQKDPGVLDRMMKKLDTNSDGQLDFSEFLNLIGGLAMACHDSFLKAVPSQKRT
attributeMeasured: pKd
Conceptually, pKd converts a concentration in mol/L into minus its log10.

*Q* Give its pKd value. Item: N=C(N)NCCC[C@@H](CC(=O)N[C@H]1CCCC[C@@H]1C(=O)N[C@H]1CCCC[C@@H]1C(=O)N[C@H](CC(=O)N[C@H]1CCCC[C@@H]1C(=O)NCC(=O)N[C@@H](CCCCNC(=O)c1ccc2c(c1)C1(OC2=O)c2ccc(O)cc2Oc2cc(O)ccc21)C(N)=O)Cc1ccccc1)NC(=O)[C@H]1CCCC[C@@H]1N
*A* 3.00

###

experimentalTarget: S100A1 (Homo sapiens)
Sequence (P23297 whole entry): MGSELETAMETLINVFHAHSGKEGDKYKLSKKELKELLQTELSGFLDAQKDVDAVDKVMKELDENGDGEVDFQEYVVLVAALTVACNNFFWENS
We begin with a simple list: items and their reported Kd.
I'd appreciate it if you wrote the number followed by its unit.

- compound: "C[C@@H](O)[C@@H](CC(=O)N[C@H]1CCCC[C@@H]1C(=O)N[C@H]1CCCC[C@@H]1C(=O)N[C@H](CC(=O)N[C@H]1CCCC[C@@H]1C(=O)NCC(=O)N[C@@H](CCCCNC(=O)c1ccc2c(c1)C1(OC2=O)c2ccc(O)cc2Oc2cc(O)ccc21)C(N)=O)Cc1c[nH]c2ccccc12)NC(=O)[C@H]1CCCC[C@@H]1N [fTW]"
  Kd: "330 µM"

*Q* Please look up its Kd: N=C(N)NCCC[C@@H](CC(=O)N[C@H]1CCCC[C@@H]1C(=O)NCC(=O)N[C@@H](CCCCNC(=O)c1ccc2c(c1)C1(OC2=O)c2ccc(O)cc2Oc2cc(O)ccc21)C(N)=O)NC(=O)[C@H]1CCCC[C@@H]1NC(=O)[C@H]1CCCC[C@@H]1NC(=O)C[C@H](CCCNC(=N)N)NC(=O)[C@H]1CCCC[C@@H]1N [fRR]
*A* 280 µM
